# study-target: human glucagon receptor (human, UniProt P47871 26-477)
# Sequence (P47871 26-477): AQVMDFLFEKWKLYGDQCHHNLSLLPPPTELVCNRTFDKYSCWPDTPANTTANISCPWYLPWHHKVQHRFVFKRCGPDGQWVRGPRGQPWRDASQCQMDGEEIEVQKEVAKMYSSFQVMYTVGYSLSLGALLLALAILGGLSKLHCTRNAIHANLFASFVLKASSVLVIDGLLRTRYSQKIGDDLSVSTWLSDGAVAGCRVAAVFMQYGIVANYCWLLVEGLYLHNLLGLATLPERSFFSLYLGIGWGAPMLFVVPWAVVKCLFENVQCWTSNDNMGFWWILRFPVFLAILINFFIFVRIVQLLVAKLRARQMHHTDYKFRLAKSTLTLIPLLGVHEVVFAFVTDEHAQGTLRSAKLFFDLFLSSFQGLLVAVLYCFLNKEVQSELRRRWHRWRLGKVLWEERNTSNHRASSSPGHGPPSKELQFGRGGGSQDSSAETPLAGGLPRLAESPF
# assay: cell-based or functional assay
Numbered stars: 1 amine (or outer) side, 2 acyl side, 3 side chain; on linkers, the order of the positions; unused ones are H or OH. Square brackets hold non-standard residues; d marks the D form. Side chains are listed from the residue outwards. Ends that are not written are not given here. * marks the point of attachment. C18 diacid = O=C(O)CCCCCCCCCCCCCCCCC(=O)*; γGlu = O=C(O)[C@H](CCC(=O)[*:2])N[*:1]; Ac4c = NC1(C(=O)O)CCC1; Aib = CC(C)(N)C(=O)O
assay-endpoint: EC50 GlucR, CRE luciferase reporter gene assay in BHK cells (nM)
Give just the numeric value; nM need not be written.

These solved cases illustrate the format of a correct answer.
binder | test-value
H[Ac4c]QGTFTSDLSKYLESKRAREFVQWLLK([γGlu-γGlu-Ser-Glu-Ser-γGlu-γGlu-C18 diacid])T-NH2 | 0.005
H[Aib]HGTFTSDLSKYLESRRARDFVQWLLK([Gly-Ser-Glu-Gly-Ser-γGlu-γGlu-C18 diacid])T-NH2 | 0.002
H[Ac4c]HGTFTSDLSKYLESRRAQDFVQWLLK([Gly-Ser-Glu-Gly-Ser-γGlu-γGlu-C18 diacid])T-NH2 | 0.001
H[Aib]QGTFTSDLSKYLESRRAREFVQWLLKT-NH2 (not fully specified (residue 28)) | 0.0624
H[Aib]QGTFTSDLSKYLDKRRAREFVAWLLNT-NH2 (not fully specified (residue 16)) | 0.0399

Read the next record carefully.
Given the entry H[Aib]QGTFTSDLSKYLDLRRARDFVQWLLK([Gly-Ser-Glu-Ser-γGlu-γGlu-C18 diacid])T-NH2 , report its measured EC50 GlucR, CRE luciferase reporter gene assay in BHK cells.
0.0305
